Provenance of the data: ChEMBL document CHEMBL1126370

assay: The receptor binding activity was evaluated as the displacement of specifically bound [3H]-NPY from male Sprague-Dawley rat brain membrane homogenates; assay type: tissue-based
READOUT_TYPE: pIC50
pIC50 (log units): -log10 of the concentration in mol/L.

INSERT INTO measurements (compound, observed_measurement) VALUES
  ('N/C(=N\CCNC(=O)C(N)Cc1ccc(OCc2c(Cl)cccc2Cl)cc1)NCCSSCCN/C(N)=N/CCNC(=O)C(N)Cc1ccc(OCc2c(Cl)cccc2Cl)cc1 (configuration not stated)', 4.73);

Please give the measured pIC50 for this compound: N/C(=N\CCNC(=O)C(N)Cc1ccc(OCc2c(Cl)cccc2Cl)cc1)NCCCCCCN/C(N)=N/CCNC(=O)C(N)Cc1ccc(OCc2c(Cl)cccc2Cl)cc1 (configuration not stated)
4.34
